Provenance of the data: patent US10851096B2

- MEASUREMENT_TARGET: hAxl/IFN-γR1 (Homo sapiens, UniProt P30530)
- Construct: containing human Axl extracellular domains and transmembrane and intracellular domains of human IFN-γR1; human IFN-γR1 transmembrane and intracellular domains (fusion partner); expressed in transfected cells
- Sequence (P30530 26-451 limits assumed): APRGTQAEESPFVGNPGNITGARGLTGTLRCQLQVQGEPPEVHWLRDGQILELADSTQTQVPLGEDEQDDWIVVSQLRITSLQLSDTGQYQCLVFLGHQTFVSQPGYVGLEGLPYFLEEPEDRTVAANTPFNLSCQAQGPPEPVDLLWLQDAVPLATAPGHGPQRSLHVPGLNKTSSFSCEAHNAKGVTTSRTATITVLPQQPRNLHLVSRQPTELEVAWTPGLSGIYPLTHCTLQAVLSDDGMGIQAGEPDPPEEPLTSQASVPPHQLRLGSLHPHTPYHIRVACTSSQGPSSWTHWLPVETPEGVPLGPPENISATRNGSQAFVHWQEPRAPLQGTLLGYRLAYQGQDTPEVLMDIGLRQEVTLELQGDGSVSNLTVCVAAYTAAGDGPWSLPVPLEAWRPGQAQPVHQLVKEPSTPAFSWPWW
- PROTOCOL_SUMMARY: hAxl/IFN-γR1 CHO reporter cell line assay, Gas6-induced activation (pSTAT1 immunoblot)
- Format: cell-based
READOUT_LABEL: remaining activity at 10 µM (%)
Give bare numbers, in %.

Answered examples (2):
1) Cc1cc(CSc2ccccc2C(=O)N2CCN(Cc3nc4ccccc4[nH]3)CC2)no1 = 141
2) Cc1nc(COc2ccccc2C(=O)N2CCN(Cc3ccncc3)CC2)cs1 = 100

// for each compound in input: emit remaining activity at 10 µM
1. Cc1cc(CSc2ccccc2C(=O)N2CCN(CC(=O)Nc3ccc(F)cc3)CC2)no1
2. COc1ccc2nc(CN3CCN(C(=O)c4ccccc4SCc4cc(C)on4)CC3)sc2c1
3. Cc1cc(CSc2ccccc2C(=O)NCCNc2ccc(C(F)(F)F)cc2C#N)on1
4. Cc1cc(CSc2ccccc2C(=O)NCCNc2ccc(C(F)(F)F)c(C#N)c2)on1
5. Cc1cc(CSc2nc(C)cc(C)c2C(=O)NCCNc2ccc(C(F)(F)F)cc2[N+](=O)[O-])on1

Result string:
1. 110
2. 90
3. 9
4. 29
5. 83

Query string: Sample Cc1cc(CSc2ccccc2C(=O)NCCNc2ccc(C#N)cc2)on1 — what was its remaining activity at 10 µM?
Result string: 16

###

- MEASUREMENT_TARGET: hAxl/IFN-γR1 (Homo sapiens)
- Construct: containing human Axl extracellular domains and transmembrane and intracellular domains of human IFN-γR1; human IFN-γR1 transmembrane and intracellular domains (fusion partner); expressed in transfected cells
- PROTOCOL_SUMMARY: hAxl/IFN-γR1 CHO reporter cell line assay, Gas6-induced activation (pSTAT1 immunoblot)
- Format: cell-based
Kindly supply the reported remaining activity at 10 µM values for the records listed here.
Answers are plain numbers, in %.

Completed entries (count: 2):
1) Cc1cc(CSc2ccccc2C(=O)NCCNc2ccc(C(F)(F)F)cc2[N+](=O)[O-])on1 [1Q] = 10
2) Cc1cc(CSc2ccccc2C(=O)N2CCN(CC(=O)Nc3ccccc3Cl)CC2)no1 [1N] = 30

Count: 5. Required value per item: remaining activity at 10 µM.
1. Cc1cc(CSc2ncncc2C(=O)NCCNc2ccc(C(F)(F)F)cc2[N+](=O)[O-])on1 [Compound 3]
2. Cc1cc(CSc2ccccc2C(=O)N2CCN(Cc3ccc(C#N)cc3)CC2)no1 [1C]
3. Cc1cc(CSc2ccccc2C(=O)NCCNc2ncc(C(F)(F)F)cc2Cl)on1 [Compound 28]
4. Cc1cc(CSc2ncccc2C(=O)N2CCN(CC(=O)Nc3ccccc3Cl)CC2)no1 [1L]
5. Cc1noc(C)c1CSc1ccccc1C(=O)N1CCN(c2cccc(C(F)(F)F)c2)CC1 [1I]

Result string:
[26, 60, 6, 20, 20]

Provide each entry's remaining activity at 10 µM from the list below.
1. Cc1cc(CSc2ccccc2C(=O)N2CCN(CC(=O)Nc3ccccc3F)CC2)no1 [Compound 16]
2. Cc1cc(CSc2ccccc2C(=O)NCCNc2nc3ccccc3o2)on1 [Compound 9]
3. Cc1ccc(NC(=O)CN2CCN(C(=O)c3ccccc3SCc3cc(C)on3)CC2)c(Cl)c1 [Compound 25]
4. Cc1cc(CSc2ccccc2C(=O)NCCNc2nc3ccccc3s2)on1 [Compound 5]
5. Cc1cc(CSc2ccccc2C(=O)N2CCN(CC(=O)Nc3ccc(Cl)cc3)CC2)no1 [Compound 17]

Result string:
1. 109
2. 20
3. 27
4. 13
5. 79

Quick batch: remaining activity at 10 µM for everything below.
1. CCN(C(=O)CN1CCN(C(=O)c2ccccc2SCc2cc(C)on2)CC1)c1ccc(F)cc1 [Compound 22]
2. Cc1cc(CSc2ccccc2C(=O)N2CCN(CC(=O)N3CCOCC3)CC2)no1 [1B]
3. Cc1cc(CSc2ccccc2C(=O)N2CCN(Cc3nc4cccc(Cl)c4o3)CC2)no1 [Compound 20]
4. Cc1cc(CSc2ccccc2C(=O)NCCNc2ccc(C(F)(F)F)cn2)on1 [Compound 6]
5. Cc1cc(CSc2ccccc2C(=O)N2CCN(Cc3nc4ccccc4o3)CC2)no1 [Compound 19]

Result string:
1: 108; 2: 70; 3: 55; 4: 6; 5: 41

###

- MEASUREMENT_TARGET: hAxl/IFN-γR1 (Homo sapiens, UniProt P30530)
- Construct: containing human Axl extracellular domains and transmembrane and intracellular domains of human IFN-γR1; human IFN-γR1 transmembrane and intracellular domains (fusion partner); expressed in transfected cells
- Sequence (P30530 26-451 limits assumed): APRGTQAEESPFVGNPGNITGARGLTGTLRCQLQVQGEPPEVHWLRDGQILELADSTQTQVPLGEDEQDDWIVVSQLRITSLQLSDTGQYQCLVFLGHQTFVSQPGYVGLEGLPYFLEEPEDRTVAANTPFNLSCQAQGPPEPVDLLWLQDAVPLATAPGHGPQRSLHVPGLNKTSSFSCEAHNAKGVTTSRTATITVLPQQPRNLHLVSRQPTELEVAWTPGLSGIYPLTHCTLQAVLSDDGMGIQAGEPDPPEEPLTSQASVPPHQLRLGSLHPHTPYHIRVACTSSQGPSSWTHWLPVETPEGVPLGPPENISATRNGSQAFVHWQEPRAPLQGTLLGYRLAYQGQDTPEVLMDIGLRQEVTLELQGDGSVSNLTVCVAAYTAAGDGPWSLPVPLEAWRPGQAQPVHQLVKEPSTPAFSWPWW
- PROTOCOL_SUMMARY: hAxl/IFN-γR1 CHO reporter cell line assay, Gas6-induced activation (pSTAT1 immunoblot)
- Assay type: cell-based
READOUT_LABEL: remaining activity at 10 µM (%)
Answers are plain numbers, in %.

1) Cc1cc(CSc2ccccc2C(=O)NCCNc2ncccn2)on1 = 16
2) Cc1cc(CSc2ccccc2C(=O)NCCNc2ccc(F)cc2C#N)on1 = 14
3) Cc1cc(CSc2ccccc2C(=O)N2CCN(Cc3nc4cc(C(F)(F)F)ccc4s3)CC2)no1 = 8
4) Cc1cc(CSc2ccccc2C(=O)N2CCN(CC(=O)NCc3ccc(Cl)cc3)CC2)no1 = 54
5) Cc1cc(CSc2ncccc2C(=O)NCCNc2ccc(C(F)(F)F)cc2[N+](=O)[O-])on1 = 57

For each of the items listed, what is its remaining activity at 10 µM?
1. Cc1cc(CSc2ccccc2C(=O)NCCNc2ccccc2[N+](=O)[O-])on1
2. Cc1cc(CSc2ccccc2C(=O)N2CCN(Cc3ccncc3)CC2)no1
3. Cc1cc(CSc2ccccc2C(=O)N2CCN(CC(=O)Nc3ccc(Cl)cn3)CC2)no1
4. Cc1nc(CSc2ccccc2C(=O)N2CCN(Cc3ccccc3)CC2)cs1

Result string:
[40, 50, 46, 60]

###

- MEASUREMENT_TARGET: hAxl/IFN-γR1 (Homo sapiens)
- Construct: containing human Axl extracellular domains and transmembrane and intracellular domains of human IFN-γR1; human IFN-γR1 transmembrane and intracellular domains (fusion partner)
- PROTOCOL_SUMMARY: hAxl/IFN-γR1 CHO reporter cell line assay, Gas6-induced activation (pSTAT1 immunoblot)
- COND: dose-response, FIG. 2A/2B; read-out: IC50, Axl-inhibitory activity on hAxl/IFN-γR1 reporter cell lines
Kindly supply the reported pIC50 values for the records listed here.
Give bare numbers, as −log10 of the molar value.

Please give pIC50 for each item listed below.
1. Cc1cc(CSc2ccccc2C(=O)NCCNc2ccc(C(F)(F)F)cc2[N+](=O)[O-])on1
2. Cc1noc(C)c1CSc1ccccc1C(=O)N1CCN(c2cccc(C(F)(F)F)c2)CC1

Result string:
5.90
5.94
